experimental target: HLA-B*5101 (human)
test name: competition vs 125I-labelled probe peptide, purified HLA, gel filtration
applied conditions: remark: other sources report otherwise
quantity measured: pIC50
The value called pIC50 is obtained by taking minus log10 of the concentration in mol/L.

Req: For LPQPPICTI (modifications not checked) [Her2/neu.941] , write its pIC50.
Resp: 8.38
